- protocol.text: gradient 5% acetonitrile 3 min, to 50% in 2 min, to 85% in 15 min, held 3 min, 100 µL/min
- recorded.conditions: column: Zorbax Extend-C18 2.1 x 50 mm; eluents: water / acetonitrile, 0.1% formic acid
parameter: RP-LC retention time (s)

smi	units.label	quantitative.readout
CCc1noc(NC(C)=O)c1-c1ccc(C)c(S(=O)(=O)Nc2cccc(C)c2C)c1	s	897
Cc1c(Cl)cccc1Nc1c(-c2ccc(N3CCOCC3)cc2)nc2ncccn12	s	758
CCCN1C(=O)c2cccnc2Sc2cc(C(=O)N3CCOCC3)ccc21	s	682
COc1cccc(C(=O)N2CCN(c3ccc(-c4ccccn4)nn3)CC2)c1OC	s	586
O=C(NS(=O)(=O)c1ccc(F)cc1)c1ccccc1	s	744
CCN(Cc1ccccc1)C(=O)c1cn2cc(Cl)ccc2n1	s	860
O=C(c1cc2ccccc2[nH]1)N1CCN(c2cc(-c3ccccc3)[nH]n2)CC1	s	792
O=C(NCc1cccs1)c1nnc(-c2ccc(S(=O)(=O)N3CCOCC3)cc2)o1	s	804
